Overview of reported TGI across a group of compounds:
# Test system: NCI-H23 lung
# PROCEDURE_TEXT: NCI tumour cell line growth inhibition, 48 h

// below: answered compounds
[
  {
    "COMPOUND": "CSCCC(N)C(=O)NCCNc1ccc(NCCNC(=O)C(N)CCSC)c2c1C(=O)c1ccccc1C2=O (centres undefined)",
    "VALUE_REPORTED": "2.32 µM"
  },
  {
    "COMPOUND": "CC1CCC/C1=C(/I)C(=O)c1ccccc1 (centres undefined)",
    "VALUE_REPORTED": "> 100 µM"
  },
  {
    "COMPOUND": "O=C1OCC2=C1C(c1cccc(Cl)c1)c1cc3c(cc1N2CCO)OCCO3 (centres undefined)",
    "VALUE_REPORTED": "> 57.2 µM"
  },
  {
    "COMPOUND": "O=C(C/C(=N/O)C(=O)NC1=C(Cl)C(=O)c2ccccc2C1=O)CC(c1ccccc1)c1c(O)c2ccccc2oc1=O (centres undefined)",
    "VALUE_REPORTED": "72.1 µM"
  },
  {
    "COMPOUND": "CC1NC(=O)C2Cc3ccc(O)c(c3)Oc3ccc(cc3)C(O)C(C(=O)N2C)N(C)C(=O)C(C)NC(=O)C(Cc2ccc(O)cc2)N(C)C(=O)C(C)NC1=O (centres undefined)",
    "VALUE_REPORTED": "> 100 µM"
  },
  {
    "COMPOUND": "CC(NC(=O)C(NC(=O)CNC(=O)OC(C)(C)C)C(C)C)C(=O)Oc1c(Cl)c(Cl)c(Cl)c(Cl)c1Cl (centres undefined)",
    "VALUE_REPORTED": "29.5 µM"
  },
  {
    "COMPOUND": "CC1=C(C(=O)Nc2ccc3n[nH]c(C)c3c2)C(c2ccc(C(F)(F)F)cc2)CC(=O)N1 (centres undefined)",
    "VALUE_REPORTED": "> 25 µM"
  },
  {
    "COMPOUND": "O=S(Nc1ccccc1)c1ccc(N2CCOCC2)cc1 (centres undefined)",
    "VALUE_REPORTED": "> 100 µM"
  }
]

Lab note: `Cc1cc(-c2nc3cc(F)ccc3s2)ccc1NC(=O)[C@@H](N)CCCCN` gave TGI of 4.93 µM

Lab note: CN(C)C(=O)OC1C(=O)N(C)c2ccc(Cl)cc2C2(c3ccccc3)N1C2(Cl)Cl (centres undefined) gave TGI of > 100 µM

Lab note: `COc1ccc(C/C(C)=C(/c2ccc(OCCN3CCCCC3)cc2)c2ccc(OC(=O)NCc3ccccc3)cc2)cc1` gave TGI of 0.838 µM

Lab note: `O=C1C(Nc2ccc(Cl)cc2)=C(I)C(=O)c2ncccc21` gave TGI of 3.17 µM

Lab note: `OC1(c2ccccc2)CCN(Cc2c[nH]c3ccccc23)CC1` gave TGI of > 100 µM

Lab note: `O=C1C(c2ccccc2)=C(O)c2cccc3cccc1c23` gave TGI of > 100 µM

Lab note: `CC(=O)[CH-]C(=O)c1ccccc1.CC(=O)[CH-]C(=O)c1ccccc1.CC[O-].CC[O-].[Hf+4]` gave TGI of > 100 µM

Lab note: O=C1NC(=O)C(C(CC(=O)c2ccc([N+](=O)[O-])cc2)c2ccccc2)C(=O)N1 (centres undefined) gave TGI of 95.1 µM

Lab note: COc1cccc(N2C(=O)C3c4[nH]c5ccccc5c4C4CCCC4C3C2=O)c1 (centres undefined) gave TGI of > 10 µM

Lab note: `O=c1[nH]nc(-c2ccccc2)n1/N=C\c1ccccc1` gave TGI of > 100 µM

Lab note: C[C@@H]1[C@H](C)N1CC(O)Cn1ccnc1[N+](=O)[O-] (some centres undefined) gave TGI of > 100 µM
